Overview of reported Antagonist K1μ/Kiδ across a group of compounds:
Molecular target: δ-opioid receptors (Rattus norvegicus, UniProt P33533)
Construct: assayed with a rat brain synaptosomal preparation (P2); from tissue; host or cells: rat brain P2 synaptosomes
Sequence (P33533 whole entry): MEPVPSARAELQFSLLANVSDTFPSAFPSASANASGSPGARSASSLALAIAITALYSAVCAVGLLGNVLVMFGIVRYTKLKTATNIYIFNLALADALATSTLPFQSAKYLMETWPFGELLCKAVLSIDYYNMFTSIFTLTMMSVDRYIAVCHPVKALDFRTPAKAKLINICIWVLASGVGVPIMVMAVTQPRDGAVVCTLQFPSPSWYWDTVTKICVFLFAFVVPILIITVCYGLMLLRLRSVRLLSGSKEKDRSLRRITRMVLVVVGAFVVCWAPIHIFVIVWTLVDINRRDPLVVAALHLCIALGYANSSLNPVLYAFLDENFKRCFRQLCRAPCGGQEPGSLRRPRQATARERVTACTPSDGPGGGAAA
Assay: Rat brain synaptosome (P2) binding, δ antagonist [3H]N,N(CH3)2-Dmt-Tic-OH (Example 47)
Conditions: selectivity; Kiδ from antagonist radioligand [3H]N,N(CH3)2-Dmt-Tic-OH
Non-standard residues stand in square brackets, D forms with d. Residues, ends and D or L forms follow the SMILES beside them. *: point of attachment. Dmt = Cc1cc(O)cc(C)c1C[C@H](N)C(=O)O; Tic = O=C(O)[C@@H]1Cc2ccccc2CN1; NHtBu = CC(C)(C)N*
parameter-measured: Antagonist K1μ/Kiδ

Cc1cc(O)cc(C)c1C[C@@H](C(=O)N1Cc2ccccc2C[C@@H]1C(=O)NC12CC3CC(CC(C3)C1)C2)N(C)C | 0.42
Cc1cc(O)cc(C)c1C[C@H](N)C(=O)N1Cc2ccccc2C[C@H]1C(=O)N[C@@H](C)C(N)=O [H-Dmt-Tic-Ala-NH2, reference compound] (H-[Dmt]-[Tic]-Ala-NH2) | 68
Cc1cc(O)cc(C)c1C[C@H](N)C(=O)N1Cc2ccccc2C[C@H]1C(=O)N[C@@H](C)C(=O)O [H-Dmt-Tic-Ala-OH, reference compound] (H-[Dmt]-[Tic]-Ala-OH) | 2784
Cc1cc(O)cc(C)c1C[C@H](N)C(=O)N1Cc2ccccc2C[C@@H]1C(=O)NC12CC3CC(CC(C3)C1)C2 | 0.004
Cc1cc(O)cc(C)c1C[C@H](N)C(=O)N1Cc2ccccc2C[C@H]1CC(=O)O | 590
Cc1cc(O)cc(C)c1C[C@H](N)C(=O)N1Cc2ccccc2C[C@H]1C(=O)Nc1nnn[nH]1 | 4
COC(=O)[C@H](C)NC(=O)[C@@H]1Cc2ccccc2CN1C(=O)[C@@H](N)Cc1c(C)cc(O)cc1C [Compound 19, H-Dmt-Tic-Ala-OMe] (H-[Dmt]-[Tic]-Ala-OMe) | 83
Cc1cc(O)cc(C)c1CC(CN)C(=O)N1Cc2ccccc2C[C@H]1C(=O)O (stereo partly drawn) | 4
Cc1cc(O)cc(C)c1C[C@H](N)C(=O)N1Cc2ccccc2C[C@H]1C(=O)NC(C)(C)C [Compound 9, H-Dmt-Tic-NH-tBu] (H-[Dmt]-[Tic]-NHtBu) | 6
Cc1cc(O)cc(C)c1C[C@@H](C(=O)N1Cc2ccccc2C[C@H]1C(=O)O)N1CCCCC1 [Compound 3, [des-NH2-α-piperidine-1-yl]-Dmt-Tic-OH] | 2755
Cc1cc(O)cc(C)c1C[C@@H](C(=O)N1Cc2ccccc2C[C@H]1C(=O)O)N(C)C [N,N(Me)2-Dmt-Tic-OH, reference compound] | 34785

* * *

The next entries give measured EC50 for δ receptors (Mus musculus).
Non-standard residues stand in square brackets, D forms with d. Residues, ends and D or L forms follow the SMILES beside them. Dmt = Cc1cc(O)cc(C)c1C[C@H](N)C(=O)O; Tic = O=C(O)[C@@H]1Cc2ccccc2CN1
parameter-measured: EC50 (nM)

Cc1cc(O)cc(C)c1C[C@H](N)C(=O)N1Cc2ccccc2C[C@H]1C(=O)NC12CC3CC(CC(C3)C1)C2 | 870
CNC(=O)[C@H](C)NC(=O)[C@@H]1Cc2ccccc2CN1C(=O)[C@@H](N)Cc1c(C)cc(O)cc1C [Compound 18, H-Dmt-Tic-Ala-NHMe] (H-[Dmt]-[Tic]-Ala-NHMe) | 1290
CNC(=O)[C@@H]1Cc2ccccc2CN1C(=O)[C@@H](N)Cc1c(C)cc(O)cc1C [Compound 7, H-Dmt-Tic-NHMe] (H-[Dmt]-[Tic]-NHMe) | 21200

* * *

Target: δ-opioid receptors (Rattus norvegicus, UniProt P33533)
Construct: assayed with a rat brain synaptosomal preparation (P2); from tissue; host or cells: rat brain P2 synaptosomes
Test: Rat brain synaptosome (P2) binding, δ antagonist [3H]N,N(CH3)2-Dmt-Tic-OH (Example 47)
Conditions: rat brain synaptosomes (P2); δ antagonist radioligand; mean ± SEM, n in parentheses; read-out: Kiδ(nM) [^3H]N,N(CH3)2-Dmt-Tic-OH
Non-standard residues stand in square brackets, D forms with d. Residues, ends and D or L forms follow the SMILES beside them. *: point of attachment. Dmt = Cc1cc(O)cc(C)c1C[C@H](N)C(=O)O; Tic = O=C(O)[C@@H]1Cc2ccccc2CN1; NHtBu = CC(C)(C)N*; NHNH2 = NN*
parameter-measured: Ki (nM)

Cc1cc(O)cc(C)c1C[C@@H](C(=O)N1Cc2ccccc2C[C@H]1C(=O)O)N1CCCC1 [Compound 4, [des-NH2-α-pyrrolidine-1-yl]-Dmt-Tic-OH] | 1.42
Cc1cc(O)cc(C)c1C[C@@H](C(=O)N1Cc2ccccc2C[C@H]1C(=O)O)n1cccc1 [Compound 5, [des-NH2-α-pyrrole-1-yl]-Dmt-Tic-OH] | 9.94
Cc1cc(O)cc(C)c1C[C@H](N)C(=O)N1Cc2ccccc2C[C@H]1C(=O)NC(C)(C)C [Compound 9, H-Dmt-Tic-NH-tBu] (H-[Dmt]-[Tic]-NHtBu) | 0.93
COC(=O)[C@H](C)NC(=O)[C@@H]1Cc2ccccc2CN1C(=O)[C@@H](N)Cc1c(C)cc(O)cc1C [Compound 19, H-Dmt-Tic-Ala-OMe] (H-[Dmt]-[Tic]-Ala-OMe) | 0.14
CNC(=O)[C@@H]1Cc2ccccc2CN1C(=O)[C@H](Cc1c(C)cc(O)cc1C)N(C)C | 0.28
Cc1cc(O)cc(C)c1C[C@H](N)C(=O)N1Cc2ccccc2C[C@H]1CC(=O)O | 0.71
Cc1cc(O)cc(C)c1CC(CN)C(=O)N1Cc2ccccc2C[C@H]1C(=O)O (some centres unmarked) | 475
Cc1cc(O)cc(C)c1C[C@H](N)C(=O)N1Cc2ccccc2C[C@H]1C(=O)NN [Compound 6, H-Dmt-Tic-NHNH2] (H-[Dmt]-[Tic]-NHNH2) | 42

* * *

Overview of reported Ki across a group of compounds:
Target: δ receptors (Rattus norvegicus)
Construct: assayed with a rat brain synaptosomal preparation (P2); from tissue; host or cells: rat brain P2 synaptosomes
Sequence (P33533 whole entry): as above
Experiment: Radio-receptor competition assay, rat brain synaptosomes, [3H]DPDPE (Example 74)
Assay type: binding
Settings: rat brain P2 synaptosomes, [3H]DPDPE; read-out: Receptor affinity (nM) Kiδ
Non-standard residues stand in square brackets, D forms with d. Residues, ends and D or L forms follow the SMILES beside them. *: point of attachment. Dmt = Cc1cc(O)cc(C)c1C[C@H](N)C(=O)O; Tic = O=C(O)[C@@H]1Cc2ccccc2CN1; NHPh = c1ccc(N*)cc1
parameter-measured: Ki (nM)

Cc1cc(O)cc(C)c1CC(N)C(=O)N1Cc2ccccc2CC1c1nc2ccccc2[nH]1 (stereo not drawn) | 0.13
Cc1cc(O)cc(C)c1C[C@H](N)C(=O)N1Cc2ccccc2C[C@H]1C(=O)NCC(=O)Nc1ccccc1 [Compound 27, H-Dmt-Tic-Gly-NH-Ph] (H-[Dmt]-[Tic]-Gly-NHPh) | 0.042
Cc1cc(O)cc(C)c1C[C@H](N)C(=O)N1Cc2ccccc2C[C@H]1C(=O)N[C@@H](C)C(N)=O [H-Dmt-Tic-Ala-NH2, reference compound] (H-[Dmt]-[Tic]-Ala-NH2) | 0.22

* * *

Target: δ receptors (Mus musculus)
Sequence (P32300 whole entry): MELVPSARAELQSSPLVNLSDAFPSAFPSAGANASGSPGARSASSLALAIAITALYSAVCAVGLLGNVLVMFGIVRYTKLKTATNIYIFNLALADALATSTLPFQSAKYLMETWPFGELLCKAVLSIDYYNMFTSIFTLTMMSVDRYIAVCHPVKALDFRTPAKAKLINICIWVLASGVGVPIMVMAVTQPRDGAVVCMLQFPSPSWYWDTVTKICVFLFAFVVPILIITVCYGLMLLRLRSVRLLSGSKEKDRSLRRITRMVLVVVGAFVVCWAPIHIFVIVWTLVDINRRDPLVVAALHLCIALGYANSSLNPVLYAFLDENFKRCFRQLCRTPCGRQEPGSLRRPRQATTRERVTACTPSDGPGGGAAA
Conditions: MVD Ke(nM), δ antagonism; Ke = antilog of pA2
Non-standard residues stand in square brackets, D forms with d. Residues, ends and D or L forms follow the SMILES beside them. *: point of attachment. Dmt = Cc1cc(O)cc(C)c1C[C@H](N)C(=O)O; Tic = O=C(O)[C@@H]1Cc2ccccc2CN1; NHtBu = CC(C)(C)N*
Overview of reported Kb across a group of compounds:
parameter-measured: Kb (nM)

Cc1cc(O)cc(C)c1C[C@H](N)C(=O)N1Cc2ccccc2C[C@H]1C(=O)NC(C)(C)C [Compound 9, H-Dmt-Tic-NH-tBu] (H-[Dmt]-[Tic]-NHtBu) | 1.74
Cc1cc(O)cc(C)c1C[C@H](N)C(=O)N1Cc2ccccc2C[C@H]1CC(=O)O | 1.41

* * *

Overview of reported Ki across a group of compounds:
Biological target: δ-opioid receptors (Rattus norvegicus)
Construct: assayed with a rat brain synaptosomal preparation (P2); from tissue; host or cells: rat brain P2 synaptosomes
Test: Rat brain synaptosome (P2) binding, agonist [3H]DPDPE (Example 47)
Settings: rat brain synaptosomes (P2); mean ± SEM, n in parentheses; read-out: Kiδ(nM) [^3H]DPDPE
Non-standard residues stand in square brackets, D forms with d. Residues, ends and D or L forms follow the SMILES beside them. Dmt = Cc1cc(O)cc(C)c1C[C@H](N)C(=O)O; Tic = O=C(O)[C@@H]1Cc2ccccc2CN1
parameter-measured: Ki (nM)

CNC(=O)[C@@H]1Cc2ccccc2CN1C(=O)[C@H](Cc1c(C)cc(O)cc1C)N(C)C | 0.54
Cc1cc(O)cc(C)c1C[C@@H](C(=O)N1Cc2ccccc2C[C@H]1C(=O)O)n1cccc1 [Compound 5, [des-NH2-α-pyrrole-1-yl]-Dmt-Tic-OH] | 16.6
COC(=O)[C@H](C)NC(=O)[C@@H]1Cc2ccccc2CN1C(=O)[C@@H](N)Cc1c(C)cc(O)cc1C [Compound 19, H-Dmt-Tic-Ala-OMe] (H-[Dmt]-[Tic]-Ala-OMe) | 0.23
Cc1cc(O)cc(C)c1C[C@H](N)C(=O)N1Cc2ccccc2C[C@H]1C(=O)N[C@@H](C)C(N)=O [H-Dmt-Tic-Ala-NH2, reference compound] (H-[Dmt]-[Tic]-Ala-NH2) | 0.24
